biological target: Sonic hedgehog protein (Homo sapiens, UniProt Q15465); experiment: Binding affinity to recombinant Shh N-terminal peptide by surface plasma resonance
Sequence (Q15465 24-197 limits assumed): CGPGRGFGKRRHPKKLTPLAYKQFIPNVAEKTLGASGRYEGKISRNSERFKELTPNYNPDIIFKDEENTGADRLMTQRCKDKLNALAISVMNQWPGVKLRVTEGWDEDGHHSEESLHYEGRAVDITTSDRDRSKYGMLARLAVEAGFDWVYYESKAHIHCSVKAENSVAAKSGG
measured_quantity: pKd
In plain terms, pKd is the concentration in mol/L turned into minus its base-10 logarithm.

Ask: Sonic hedgehog protein (Homo sapiens, UniProt Q15465) / pKd / O=C(C[C@H]1C/C=C/CCCC(=O)O[C@@H](c2ccccc2)CNC1=O)NCc1ccc(Cl)cc1 : value?
Reply: 5.51

---

biological target: Sonic hedgehog protein (Mus musculus); assay: Inhibition of SHH in mouse Shh Light2 cells after 30 hrs by GLI-responsive bright glo luciferase reporter gene assay
Sequence (Q62226 25-198 limits assumed): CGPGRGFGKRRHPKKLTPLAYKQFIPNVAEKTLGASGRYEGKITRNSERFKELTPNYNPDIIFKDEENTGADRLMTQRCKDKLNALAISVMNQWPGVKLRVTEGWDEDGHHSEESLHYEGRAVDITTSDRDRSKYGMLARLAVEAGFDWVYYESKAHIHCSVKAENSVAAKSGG
measured_quantity: EC50 (µM)
Write the answer as a number in µM, unit excluded.

Ask: So what does the record say about EC50 for O=C(C[C@@H]1C/C=C/CCC(=O)O[C@H](c2ccccc2)CNC1=O)NCc1ccc(Cl)cc1 ?
Reply: 4

---

target: Sonic hedgehog protein (Mus musculus); assay: Inhibition of SHH in mouse Ptch deffective MEF cells after 30 hrs by Gli-responsive beta-galactosidse reporter gene assay; assay type: cell-based
Activity calls are given as the source filed them. No cut-off for these calls is given here.
measured_quantity: inhibition

> print(dat)
                               smiles.input  reported.result
1  O=C(C[C@@H]1C/C=C/CCCCC(=O)OCCNC1=O)NCc1ccc(Cl)cc1         inactive
2  O=C(C[C@H]1C/C=C/CCCC(=O)O[C@@H](c2ccccc2)CNC1=O)NCc1ccc(Cl)cc1         inactive
3  O=C(C[C@@H]1C/C=C/CCCC(=O)OCCNC1=O)NCc1ccc(Cl)cc1         inactive
4  O=C(C[C@H]1C/C=C/CCCC(=O)O[C@H](c2ccccc2)CNC1=O)NCc1ccc(Cl)cc1         inactive
5  O=C(C[C@H]1C/C=C/CCCC(=O)OCCNC1=O)NCc1ccc(Cl)cc1         inactive
6  O=C(C[C@@H]1C/C=C/CCC(=O)O[C@@H](c2ccccc2)CNC1=O)NCc1ccc(Cl)cc1         inactive

Ask: Fill in the blank: the reported inhibition of O=C(C[C@H]1C/C=C/CCCCC(=O)OCCNC1=O)NCc1ccc(Cl)cc1 is ____.
Reply: inactive

Ask: Which inhibition is listed for O=C(C[C@@H]1C/C=C/CCCCC(=O)O[C@H](c2ccccc2)CNC1=O)NCc1ccc(Cl)cc1 ?
Reply: inactive

Ask: For the compound O=C(C[C@H]1C/C=C/CCC(=O)OCCNC1=O)NCc1ccc(Cl)cc1 , what inhibition is on record?
Reply: inactive

---

experiment: Cytotoxicity against mouse Shh Light2 cells by cell titer glo assay; type: cell-based; details: shh light ii
measured_quantity: Activity

Worked examples follow.
> print(dat)
                               smiles.input  measured.quantity  reported.result
1  O=C(C[C@H]1C/C=C/CCCC(=O)O[C@H](c2ccccc2)CNC1=O)NCc1ccc(Cl)cc1           Activity        Non-toxic
2  O=C(C[C@H]1C/C=C/CCC(=O)O[C@@H](c2ccccc2)CNC1=O)NCc1ccc(Cl)cc1           Activity        Non-toxic
3  O=C(C[C@@H]1C/C=C/CCC(=O)O[C@H](c2ccccc2)CNC1=O)NCc1ccc(Cl)cc1           Activity        Non-toxic
4  O=C(C[C@H]1C/C=C/CCCC(=O)OCCNC1=O)NCc1ccc(Cl)cc1           Activity        Non-toxic
5  O=C(C[C@@H]1C/C=C/CCCCC(=O)OCCNC1=O)NCc1ccc(Cl)cc1           Activity        Non-toxic
6  O=C(C[C@@H]1C/C=C/CCC(=O)O[C@@H](c2ccccc2)CNC1=O)NCc1ccc(Cl)cc1           Activity        > 15.6 µM
7  O=C(C[C@@H]1C/C=C/CCCC(=O)O[C@@H](c2ccccc2)CNC1=O)NCc1ccc(Cl)cc1           Activity        Non-toxic
8  O=C(C[C@H]1C/C=C/CCCCC(=O)O[C@@H](c2ccccc2)CNC1=O)NCc1ccc(Cl)cc1           Activity        Non-toxic

Ask: Please look up its Activity: O=C(C[C@H]1C/C=C/CCC(=O)O[C@H](c2ccccc2)CNC1=O)NCc1ccc(Cl)cc1
Reply: Non-toxic

Ask: Need Activity, item O=C(C[C@H]1C/C=C/CCC(=O)OCCNC1=O)NCc1ccc(Cl)cc1
Reply: Non-toxic

Ask: Any idea what Activity was measured for O=C(C[C@@H]1C/C=C/CCCCC(=O)O[C@H](c2ccccc2)CNC1=O)NCc1ccc(Cl)cc1 ?
Reply: Non-toxic

Ask: Given the entry O=C(C[C@@H]1C/C=C/CCCC(=O)O[C@H](c2ccccc2)CNC1=O)NCc1ccc(Cl)cc1 , report its measured Activity.
Reply: Non-toxic

Ask: Query (compound): O=C(C[C@H]1C/C=C/CCCC(=O)O[C@@H](c2ccccc2)CNC1=O)NCc1ccc(Cl)cc1 ; field requested: Activity
Reply: Non-toxic

---

target: Sonic hedgehog protein (Mus musculus); assay: Inhibition of SHH in mouse Shh Light2 cells after 30 hrs by GLI-responsive bright glo luciferase reporter gene assay relative to 6 uM cyclopamine; type: functional, cell-based; conditions: Shh Light II
measured_quantity: ECmax (%)
Express your answer in %, writing the number without its unit.

> print(dat)
                               smiles.input  reported.result
1  O=C(C[C@@H]1C/C=C/CCCCC(=O)OCCNC1=O)NCc1ccc(Cl)cc1               70

Ask: Item under review: O=C(C[C@H]1C/C=C/CCC(=O)OCCNC1=O)NCc1ccc(Cl)cc1 . Reported ECmax?
Reply: 50

Ask: Returns the measured ECmax for the input compound. Input: O=C(C[C@@H]1C/C=C/CCCC(=O)O[C@H](c2ccccc2)CNC1=O)NCc1ccc(Cl)cc1
Reply: 93

Ask: Quick check: ECmax of O=C(C[C@@H]1C/C=C/CCC(=O)O[C@H](c2ccccc2)CNC1=O)NCc1ccc(Cl)cc1 ?
Reply: 91

Ask: Which ECmax is listed for O=C(C[C@@H]1C/C=C/CCC(=O)OCCNC1=O)NCc1ccc(Cl)cc1 ?
Reply: 55

---

assay: Cytotoxicity against mouse Shh Light2 cells by cell titer glo assay; assay type: cell-based; settings: shh light ii
measured_quantity: Activity

Use these answered entries as a reference point.
> print(dat)
                               smiles.input  reported.result
1  O=C(C[C@@H]1C/C=C/CCCCC(=O)O[C@@H](c2ccccc2)CNC1=O)NCc1ccc(Cl)cc1          > 31 µM
2  O=C(C[C@H]1C/C=C/CCCCC(=O)OCCNC1=O)NCc1ccc(Cl)cc1        Non-toxic
3  O=C(C[C@@H]1C/C=C/CCC(=O)OCCNC1=O)NCc1ccc(Cl)cc1        Non-toxic
4  O=C(C[C@@H]1C/C=C/CCCC(=O)OCCNC1=O)NCc1ccc(Cl)cc1        Non-toxic

Now for the compound whose Activity we want.
Ask: # input compound: O=C(C[C@H]1C/C=C/CCCCC(=O)O[C@H](c2ccccc2)CNC1=O)NCc1ccc(Cl)cc1 ; wanted: its Activity
Reply: Non-toxic
